Reference for the values: the supplement of paper PMC10567573

- Protocol Notes: protein stability index of a GFP-peptide fusion (GPS, HEK-293T) (PSI 1-6); higher = more stable;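 further: 24-mer peptide tiles fused after GFP, lentivirally expressed, FACS-sorted into six equal bins by GFP/DsRed ratio, decoded by Illumina sequencing, PSI is the read-weighted mean bin number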
- Cond: treatment: DMSO; c terminus: a fixed tail appended

{"Construct Sequence": "VAERKYTQEQARKEFQQVFIPECN [SMOC2]", "protein stability index": 4.38}
{"Construct Sequence": "VPARDGTSCKLTDLRGVCVSGKCE [ADAMTSL2]", "protein stability index": 3.95}
{"Construct Sequence": "TCLPLGVLMKGQHLHLETFKAVLD [PRAME]", "protein stability index": 2.36}
{"Construct Sequence": "RSQYEALVETNRREVEQWFATQTE [KRT34]", "protein stability index": 4.29}
{"Construct Sequence": "TAENERLQKKVEQLSRELSTLRNL [CEBPB]", "protein stability index": 3.69}
{"Construct Sequence": "LVQLPNINRVSTCYSEEITVCGDL [PPEF2]", "protein stability index": 2.42}
{"Construct Sequence": "MRLSSSPPRGPQQLSSFGSVDWLS [VENTX]", "protein stability index": 2.99}
{"Construct Sequence": "GSIMTVWLSTAPTEPLTHWYQVRC [CARM1]", "protein stability index": 2.74}
{"Construct Sequence": "MNKGDTEVMKCIVEVISDTLSKPS [CHGA]", "protein stability index": 2.84}
{"Construct Sequence": "KDEPSKYNQQQALIDQRYFQVLCS [CEP70]", "protein stability index": 3}
{"Construct Sequence": "VTKLCVQFLNDQISVQNYKQVCKI [KLHL14]", "protein stability index": 2.76}
{"Construct Sequence": "PLMQGPRTRPRKPIRCGEVLFAVG [KLHL20]", "protein stability index": 2.23}
{"Construct Sequence": "MSQTGSHPGRGLAGRWLWGAQPCL [ADAMTS4]", "protein stability index": 3}
{"Construct Sequence": "GLGFASNAFQETWYWHGDVNSNKV [LOXL2]", "protein stability index": 3.04}
{"Construct Sequence": "QDEEDMFMVVDLLLGGDLRYHLQQ [STK32A]", "protein stability index": 2.21}
{"Construct Sequence": "QIDAVGSKLKMLERKGWLAPSPGV [PKD2L1]", "protein stability index": 3}
{"Construct Sequence": "PRRESLLRGLCRPLRPLLGFRESD [C6orf223]", "protein stability index": 2.36}
{"Construct Sequence": "SRSPSVEGSLWAVGTESQGRDWRH [PXN]", "protein stability index": 4.04}
{"Construct Sequence": "FANGHTYHINSISVNSDCETYMSA [PPP2R2C]", "protein stability index": 2.68}
{"Construct Sequence": "GSQLEDQALRGLEGYTWRVAQLED [ZSWIM9]", "protein stability index": 3.98}
{"Construct Sequence": "RDRLLNRYRQAGSSGPGNSQNSFL [RPAIN]", "protein stability index": 3.36}
{"Construct Sequence": "DWEAVPQRKLKPPIVPKIAGDGDT [PRKX]", "protein stability index": 4.9}
{"Construct Sequence": "FNSILPGVLILFLTFFAFLHCWLN [SOAT1]", "protein stability index": 2.22}
{"Construct Sequence": "WSPSPPATPEQGLSAFYLSYFDML [SPDEF]", "protein stability index": 2.14}
{"Construct Sequence": "ILREIRHPNIITLHDIFENKTDVV [DAPK3]", "protein stability index": 2.47}
{"Construct Sequence": "RDMNGKSLDGKAIKVEQATKPSFE [RBMX]", "protein stability index": 5.08}
{"Construct Sequence": "EVETEGPESADTGDKSESPDEANV [TOR1AIP2]", "protein stability index": 5.32}
{"Construct Sequence": "QLPFCGPNVIDNFLCDLYPLLKLA [OR4A15]", "protein stability index": 2.64}
{"Construct Sequence": "VTAEVDLFGDAFAASPGEAPAASE [SNAP91]", "protein stability index": 5.02}
{"Construct Sequence": "ASSNVFSNFEQTQIQEFKEAFTLM [MYL5]", "protein stability index": 3.49}
{"Construct Sequence": "GASSPAAYDEALAELHAHGPAAFV [ZSWIM9]", "protein stability index": 3.87}
{"Construct Sequence": "LWWIAPGDETAHRIDSQFLIGDTL [MYORG]", "protein stability index": 1.95}
{"Construct Sequence": "YENCLQALADVEVKYIVERTMLDF [NLN]", "protein stability index": 2.08}
{"Construct Sequence": "LVNTSENLSKSRKILRSMSRKVTT [VTI1B]", "protein stability index": 3.33}
{"Construct Sequence": "SLFSLLIAAAVYIMDTVGNIWVCY [SLC19A2]", "protein stability index": 2.94}
{"Construct Sequence": "PPGPKGDQGDEGKEGRPGIPGLPG [SCARA5]", "protein stability index": 5.69}
{"Construct Sequence": "RFNQAILVSRHDPASRRRVVEEVR [LPCAT4]", "protein stability index": 3.62}
{"Construct Sequence": "KCLLYCNGVLEPLYLCPNGARCAT [SLC25A39]", "protein stability index": 2.24}
{"Construct Sequence": "ELSEAAEAQHGPHSAVARISRAQY [STX11]", "protein stability index": 4.53}
{"Construct Sequence": "YWDGSGHRRTVKMRKGNTMQQFLQ [FAM50A]", "protein stability index": 2.74}
{"Construct Sequence": "GEFRTGKTQICHTLAVTCQLPIDR [RAD51]", "protein stability index": 2.73}
{"Construct Sequence": "LELHDYHDIIKHPMDLSTVKRKMD [BRD3]", "protein stability index": 4.05}
{"Construct Sequence": "NRDEVLDNLLAFVCDIRPEIHENY [ATP6V1G1]", "protein stability index": 2.49}
{"Construct Sequence": "LRQLRELEEQFALEAGGYQAGAAR [PRPH]", "protein stability index": 4.07}
{"Construct Sequence": "VVKLENGEIETIARFGSGPCKTRD [APMAP]", "protein stability index": 3.77}
{"Construct Sequence": "EPASAREAPASVVPFVRVKREREV [USP39]", "protein stability index": 4.93}
{"Construct Sequence": "PEQSLKKTKTSEYPIIFVYYLRKG [SPANXN3]", "protein stability index": 2.75}
{"Construct Sequence": "QIEKKEKKLHKIQNKAQRQKDLIM [TAF7L]", "protein stability index": 3.64}
{"Construct Sequence": "TIRLRPRQVLCEKCKSTLSPPEAS [PWWP2B]", "protein stability index": 3.23}
{"Construct Sequence": "LSTKKSPCAGSTSLSHSPGCSSTQ [LCOR]", "protein stability index": 4.35}
{"Construct Sequence": "NHMYSCRFSRQCVVDKDKRNQCRY [HNF4A]", "protein stability index": 2.61}
{"Construct Sequence": "KDAAKQIAWIKDKLLHIYYQNSID [PDS5B]", "protein stability index": 1.78}
{"Construct Sequence": "APLLPHITATSLLGTRESDTEVIT [BCL2L13]", "protein stability index": 4.58}
